Biological target: PI3K gamma (Homo sapiens, UniProt P48736)
Sequence (P48736 whole entry): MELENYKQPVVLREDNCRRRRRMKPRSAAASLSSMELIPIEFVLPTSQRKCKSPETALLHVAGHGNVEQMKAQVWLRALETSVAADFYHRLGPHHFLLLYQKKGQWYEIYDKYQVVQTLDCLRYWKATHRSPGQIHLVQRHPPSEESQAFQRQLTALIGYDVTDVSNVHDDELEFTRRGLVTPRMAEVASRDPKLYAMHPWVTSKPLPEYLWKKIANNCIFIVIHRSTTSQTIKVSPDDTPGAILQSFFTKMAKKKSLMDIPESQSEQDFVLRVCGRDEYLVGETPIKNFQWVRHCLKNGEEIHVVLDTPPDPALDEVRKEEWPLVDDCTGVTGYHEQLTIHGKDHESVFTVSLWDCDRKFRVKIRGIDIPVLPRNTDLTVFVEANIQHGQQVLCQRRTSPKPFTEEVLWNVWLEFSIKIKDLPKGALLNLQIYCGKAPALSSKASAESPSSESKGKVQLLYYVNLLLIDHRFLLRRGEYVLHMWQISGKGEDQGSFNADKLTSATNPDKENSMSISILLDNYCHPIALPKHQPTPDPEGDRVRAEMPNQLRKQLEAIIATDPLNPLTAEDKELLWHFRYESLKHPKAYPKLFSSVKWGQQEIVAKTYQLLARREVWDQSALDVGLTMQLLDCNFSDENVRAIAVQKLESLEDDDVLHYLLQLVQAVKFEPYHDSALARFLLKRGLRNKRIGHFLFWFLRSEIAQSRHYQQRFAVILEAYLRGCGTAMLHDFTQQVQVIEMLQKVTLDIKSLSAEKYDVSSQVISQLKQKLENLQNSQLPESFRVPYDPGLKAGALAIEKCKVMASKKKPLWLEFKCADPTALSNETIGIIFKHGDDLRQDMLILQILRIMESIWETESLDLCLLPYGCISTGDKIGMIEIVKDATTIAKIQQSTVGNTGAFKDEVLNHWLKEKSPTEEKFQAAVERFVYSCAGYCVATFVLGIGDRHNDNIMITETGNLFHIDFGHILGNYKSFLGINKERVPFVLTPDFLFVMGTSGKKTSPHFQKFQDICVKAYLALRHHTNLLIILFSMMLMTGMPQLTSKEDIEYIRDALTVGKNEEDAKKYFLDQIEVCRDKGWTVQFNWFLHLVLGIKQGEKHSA
Test: PI3K gamma in vitro inhibition
Assay type: biochemical
Conditions: read-out: IC50 inhibition PI3K gamma
pIC50: −log10 of the molar value.
parameter measured: pIC50

Cc1nn(-c2ccnc(Nc3ccc(-c4csc5c(=O)cc(N6CCNCC6)oc45)cc3)n2)cc1CN1CCC1 [Compound 55] : < 4.35
C=CC(=O)N1CCOc2ccc(-c3csc4c(=O)cc(N5CCN(C(=O)OC(C)(C)C)CC5)oc34)cc21 [Compound 29] : 4.35 to 5.00
C=CS(=O)(=O)N1CCCc2ccc(-c3csc4c(=O)cc(N5CCOCC5)oc34)cc21 [Compound 44] : > 6.30

# return pIC50 for each item in the list
1. CC(C)n1c(C(=O)N(C)C)cc2cnc(Nc3ccc(-c4csc5c(=O)cc(N6CCOCC6)oc45)cc3)nc21 [Compound 25]
2. C=CS(=O)(=O)N(C)c1cccc(-c2csc3c(=O)cc(N4CCOCC4)oc23)c1 [Compound 47]

Key:
1. 5.00 to 6.00
2. > 6.30

----------
For PI3K alpha (Homo sapiens, UniProt P42336), measured pIC50 is reported for the entries below.
pIC50: −log10 of the molar value.

COC(=O)c1cc(-c2csc3c(=O)cc(N4CCN(C(=O)OC(C)(C)C)CC4)oc23)cc2c1OCCO2 : > 6.30
C=CC(=O)N1CCOc2ccc(-c3csc4c(=O)cc(N5CCNCC5)oc34)cc21 : 4.35 to 5.00
CN(C)C(=O)c1cc2cnc(Nc3cccc(-c4csc5c(=O)cc(N6CCOCC6)oc45)c3)nc2n1C1CCCC1 : 6.00 to 6.30
CN(C)C(=O)c1cc2cnc(Nc3cc(C(=O)O)cc(-c4csc5c(=O)cc(N6CCOCC6)oc45)c3)nc2n1C1CCCC1 : 5.00 to 6.00
CN(C)C(=O)c1cc2cnc(Nc3ccc(-c4csc5c(=O)cc(N6CCNCC6)oc45)cc3)nc2n1C1CCCC1 : 4.35 to 5.00

// for each molecule in input: emit pIC50
1. CNC(=O)c1cc2cnc(Nc3ccc(C#Cc4csc5c(=O)cc(N6CCOCC6)oc45)cc3)nc2n1C1CCCC1
2. CN(C)C(=O)c1cc2cnc(Nc3ccc(-c4csc5c(=O)cc(N6CCOCC6)oc45)cn3)nc2n1C1CCCC1

Key:
> 6.30
> 6.30

----------
Form: system (mTOR (Homo sapiens, UniProt P42345)), quantity (IC50), values below.

Consider the reported IC50 for these molecules:
CN(C)C(=O)c1cc2cnc(Nc3ccc(-c4csc5c(=O)cc(N6CCOCC6)oc45)nc3)nc2n1C1CCCC1 : 1000 to 10000 nM
CN(C)C(=O)c1cc2cnc(Nc3ccc(-c4csc5c(=O)cc(N6CCOCC6)oc45)cc3)nc2n1C1CCCC1 : 1000 to 10000 nM

Next molecule, IC50 to be filled in.
Exercise: State, for mTOR (Homo sapiens, UniProt P42345), measured IC50 of the molecule listed here: O=c1cc(N2CCOCC2)oc2c(-c3ccc4c(c3)OCCO4)csc12
Key: < 500 nM

----------
Here we list molecules with their recorded pIC50 when tested on BRD4-2 (Homo sapiens).
pIC50: −log10 of the molar value.

Consider the following illustrative entries.
C=CS(=O)(=O)Nc1cccc(-c2csc3c(=O)cc(N4CCOCC4)oc23)c1 [Compound 46] : > 6.30
C=CS(=O)(=O)N(C)c1cc(-c2csc3c(=O)cc(N4CCOCC4)oc23)ccc1OC [Compound 48] : > 6.30

// each molecule listed below needs its pIC50
1. C/C=C(/C)C(=O)N1CCOc2ccc(-c3csc4c(=O)cc(N5CCOCC5)oc34)cc21 [Compound 37]
2. COC(=O)c1cc(-c2csc3c(=O)cc(N4CCN(C(=O)OC(C)(C)C)CC4)oc23)cc2c1OCCO2 [Compound 5]
3. Cc1nn(-c2ccnc(Nc3ccc(-c4csc5c(=O)cc(N6CCOCC6)oc45)cc3)n2)cc1CN1CCOCC1 [Compound 58]

Key:
["6.00 to 6.30", "< 4.35", "5.00 to 6.00"]

----------
Target: BRD4-1 (Homo sapiens, UniProt O60885)
pIC50: −log10 of the molar value.
parameter measured: pIC50

Known pIC50 results, listed for orientation:
COc1cc(C#Cc2csc3c(=O)cc(N4CCOCC4)oc23)cc(OC)c1 [Compound 5-3] : > 6.30
C/C=C/C(=O)N1CCOc2ccc(-c3csc4c(=O)cc(N5CCOCC5)oc34)cc21 [Compound 39] : > 6.30
Cc1nc2c(F)cc(-c3nc(Nc4ccc(-c5csc6c(=O)cc(N7CCOCC7)oc56)cc4)ncc3F)cc2n1C(C)C [Compound 25-1] : < 4.35
CN(C)C(=O)c1cc2cnc(Nc3ccc(-c4csc5c(=O)cc(N6CCOCC6)oc45)cc3C(=O)O)nc2n1C1CCCC1 [Compound 13] : 6.00 to 6.30
CN(C)C(=O)c1cc2cnc(Nc3ccc(-c4csc5c(=O)cc(N6CCOCC6)oc45)c(C(=O)NCCN)c3)nc2n1C1CCCC1 [Compound 22] : < 4.35

Quick one: give me pIC50 for each item below, same order please.
1. CC(C)n1c(C(=O)N(C)C)cc2cnc(Nc3ccc(-c4csc5c(=O)cc(N6CCOCC6)oc45)cc3)nc21 [Compound 25]
2. Cc1nn(-c2ccnc(Nc3ccc(-c4csc5c(=O)cc(N6CCNCC6)oc45)cc3)n2)cc1CN1CCC1 [Compound 55]

Key:
> 6.30
5.00 to 6.00

----------
pIC50: −log10 of the molar value.
For PI3K alpha (Homo sapiens, UniProt P42336), measured pIC50 is reported for the entries below.

C=CS(=O)(=O)N1CCCc2ccc(-c3csc4c(=O)cc(N5CCOCC5)oc34)cc21 : > 6.30
C=CC(=O)Nc1cccc(-c2csc3c(=O)cc(N4CCNCC4)oc23)c1 : < 4.35
O=C(NCc1cccnc1)c1cc(-c2csc3c(=O)cc(N4CCOCC4)oc23)cc2c1OCCO2 : > 6.30
CN(C)C(=O)c1cc2cnc(Nc3cncc(-c4csc5c(=O)cc(N6CCOCC6)oc45)c3)nc2n1C1CCCC1 : 6.00 to 6.30
CN(C)C(=O)c1cc2cnc(N(c3cncc(-c4csc5c(=O)cc(N6CCOCC6)oc45)c3)c3ncc4cc(C(=O)N(C)C)n(C5CCCC5)c4n3)nc2n1C1CCCC1 : 5.00 to 6.00
COc1cc(C#Cc2csc3c(=O)cc(N4CCOCC4)oc23)cc(OC)c1 : 6.00 to 6.30

Exercise: Supply measured pIC50 of CN(C)C(=O)c1cc2cnc(Nc3ccc(-c4csc5c(=O)cc(N6CCN(C(=O)OC(C)(C)C)CC6)oc45)cc3)nc2n1C1CCCC1 in your reply.
Key: 5.00 to 6.00

----------
Biological target: BRD4-2 (Homo sapiens)
Task for the reader: assign each of the following molecules its reported IC50.

Reference set, count: 5
CN(C)C(=O)c1cc2cnc(Nc3ccc(-c4csc5c(=O)cc(N6CCNCC6)oc45)cc3)nc2n1C1CCCC1 [Compound 9] : 0.5 to 1 µM
CN(C)C(=O)c1cc2cnc(Nc3ccc(-c4csc5c(=O)cc(N6CCOCC6)oc45)c(C(=O)O)c3)nc2n1C1CCCC1 [Compound 15] : 10 to 45 µM
O=c1cc(N2CCNCC2)oc2c(-c3ccc4c(c3)OCCO4)csc12 [Compound 1] : 10 to 45 µM
O=C(NCc1cccnc1)c1cc(-c2csc3c(=O)cc(N4CCOCC4)oc23)cc2c1OCCO2 [Compound 2] : < 0.5 µM
COc1cc(C#Cc2csc3c(=O)cc(N4CCOCC4)oc23)cc(OC)c1 [Compound 5-3] : 0.5 to 1 µM

Could you now look at the following molecule, please?
Exercise: Provide BRD4-2 (Homo sapiens) IC50 reading for CNC(=O)c1cc2cnc(Nc3ccc(-c4csc5c(=O)cc(N6CCOCC6)oc45)cc3)nc2n1C1CCCC1 [Compound 16] .
Key: < 0.5 µM

----------
Target: BTK (Homo sapiens)
Sequence (Q06187 whole entry): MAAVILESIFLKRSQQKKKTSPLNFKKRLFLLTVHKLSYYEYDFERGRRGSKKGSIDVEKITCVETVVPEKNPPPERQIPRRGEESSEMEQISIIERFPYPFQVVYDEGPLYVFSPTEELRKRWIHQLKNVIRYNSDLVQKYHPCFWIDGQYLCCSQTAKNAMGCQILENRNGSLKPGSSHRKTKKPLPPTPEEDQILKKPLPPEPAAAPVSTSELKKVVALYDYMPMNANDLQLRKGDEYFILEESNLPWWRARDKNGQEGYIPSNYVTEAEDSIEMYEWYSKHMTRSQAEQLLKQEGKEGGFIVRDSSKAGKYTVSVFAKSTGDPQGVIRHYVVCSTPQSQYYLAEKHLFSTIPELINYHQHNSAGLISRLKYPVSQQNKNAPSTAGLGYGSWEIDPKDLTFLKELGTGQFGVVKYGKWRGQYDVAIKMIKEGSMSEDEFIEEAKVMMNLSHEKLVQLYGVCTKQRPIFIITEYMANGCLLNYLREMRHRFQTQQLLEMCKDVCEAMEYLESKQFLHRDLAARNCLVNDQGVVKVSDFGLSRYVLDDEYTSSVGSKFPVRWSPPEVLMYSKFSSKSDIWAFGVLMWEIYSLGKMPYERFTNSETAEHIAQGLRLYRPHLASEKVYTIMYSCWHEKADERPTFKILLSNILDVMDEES
pIC50: −log10 of the molar value.
parameter measured: pIC50

C=CC(=O)Nc1ccc(-c2csc3c(=O)cc(N4CCOCC4)oc23)cc1 : 4.35 to 5.00
C=CS(=O)(=O)N(C)c1cc(-c2csc3c(=O)cc(N4CCOCC4)oc23)ccc1OC : > 6.30
C=CS(=O)(=O)Nc1cccc(-c2csc3c(=O)cc(N4CCOCC4)oc23)c1 : > 6.30

Please supply pIC50 for each of the following items, keeping them in order.
1. C=CC(=O)N1CCOc2ccc(-c3csc4c(=O)cc(N5CCNCC5)oc34)cc21
2. C=CC(=O)Nc1cccc(-c2csc3c(=O)cc(N4CCOCC4)oc23)c1
3. O=C(C1=CCCC1)N1CCOc2ccc(-c3csc4c(=O)cc(N5CCOCC5)oc34)cc21 [Compound 41]

Key:
> 6.30
6.00 to 6.30
5.00 to 6.00
